// provenance: patent US7045532B2

Recorded pKi for the following molecules
assayed.target: UniProtKB P00730
Sequence (P00730 111-419): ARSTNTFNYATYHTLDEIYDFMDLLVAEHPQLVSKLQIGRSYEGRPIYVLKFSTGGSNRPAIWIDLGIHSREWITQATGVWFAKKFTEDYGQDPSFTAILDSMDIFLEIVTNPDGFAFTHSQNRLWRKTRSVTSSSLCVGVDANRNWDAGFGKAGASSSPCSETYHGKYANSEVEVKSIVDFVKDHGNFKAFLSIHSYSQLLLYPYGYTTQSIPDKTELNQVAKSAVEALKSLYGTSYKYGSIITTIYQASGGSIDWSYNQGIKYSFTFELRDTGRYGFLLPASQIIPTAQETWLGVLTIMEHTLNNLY
measurement.description: Carboxypeptidase A activity assay
Format: biochemical
applied.conditions: Ki class; compounds tested in 5% DMSO, 12 compound concentrations
pKi: −log10 of the molar value.

{"molecule": "CC(C)CC(N[C@@H](Cc1cncn1Cc1cccc(Cl)c1)C(=O)O)C(=O)O (single isomer, unassigned)", "pKi": "4.30 to 5.00"}
{"molecule": "CC(C)CC(N[C@@H](Cc1cncn1Cc1ccc(C(C)(C)C)cc1)C(=O)O)C(=O)O (single isomer, unassigned)", "pKi": "> 5.00"}
{"molecule": "CC(C)CC(N[C@@H](Cc1cncn1Cc1ccc(OC(F)(F)F)cc1)C(=O)O)C(=O)O (single isomer, unassigned)", "pKi": "4.30 to 5.00"}
{"molecule": "CC(C)CC(N[C@@H](Cc1cncn1Cc1cc(Cl)cc(Cl)c1)C(=O)O)C(=O)O (single isomer, unassigned)", "pKi": "4.30 to 5.00"}

###

assayed.target: ACE-2 (Homo sapiens)
Construct: a stop codon inserted after the serine immediately preceding the transmembrane domain; made in house; host or cells: CHO K1 cells (transient transfection, purified from conditioned medium)
Sequence (Q9BYF1 18-740 limits assumed): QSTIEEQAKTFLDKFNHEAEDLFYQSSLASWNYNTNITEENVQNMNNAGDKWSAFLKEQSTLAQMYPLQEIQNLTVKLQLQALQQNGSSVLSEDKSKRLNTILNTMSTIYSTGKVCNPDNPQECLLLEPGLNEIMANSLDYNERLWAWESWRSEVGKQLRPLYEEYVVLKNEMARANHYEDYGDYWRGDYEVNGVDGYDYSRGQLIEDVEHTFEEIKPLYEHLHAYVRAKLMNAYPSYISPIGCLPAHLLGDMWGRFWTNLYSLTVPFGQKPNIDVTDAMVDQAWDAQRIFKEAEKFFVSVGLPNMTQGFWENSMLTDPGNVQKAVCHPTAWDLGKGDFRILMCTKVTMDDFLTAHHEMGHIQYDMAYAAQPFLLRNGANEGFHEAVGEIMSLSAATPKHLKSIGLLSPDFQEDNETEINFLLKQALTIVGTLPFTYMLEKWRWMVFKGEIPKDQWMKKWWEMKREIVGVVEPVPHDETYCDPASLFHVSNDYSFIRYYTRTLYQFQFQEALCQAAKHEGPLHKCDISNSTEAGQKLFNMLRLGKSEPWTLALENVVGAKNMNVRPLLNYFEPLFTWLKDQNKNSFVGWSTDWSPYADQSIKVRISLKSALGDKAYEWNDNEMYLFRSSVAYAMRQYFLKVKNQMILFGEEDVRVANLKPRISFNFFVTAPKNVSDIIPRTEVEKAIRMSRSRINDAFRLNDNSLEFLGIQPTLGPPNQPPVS
measurement.description: ACE-2 Competitive Substrate Assay (ACS Assay)
Assay type: biochemical
applied.conditions: Table 3, very good ACE-2 inhibiting compounds; species not given; read-out: ACE-2 Activity, Ki
pKi: −log10 of the molar value.
Recorded pKi for the following molecules

{"molecule": "CC(C)C[C@H](N[C@@H](Cc1coc(-c2cc(Cl)cc(Cl)c2)n1)C(=O)O)C(=O)O", "assayed.target": "ACE-2 (Homo sapiens)", "pKi": "7.00 to 7.30"}
{"molecule": "CC(C)C[C@H](N[C@@H](Cn1ccn(Cc2cccc(Cl)c2)c1=O)C(=O)O)C(=O)O", "assayed.target": "ACE-2 (Homo sapiens)", "pKi": "> 7.30"}
{"molecule": "CC(C)C[C@H](N[C@@H](Cc1ccc(OCc2cc(Cl)cc(Cl)c2)cc1)C(=O)O)C(=O)O", "assayed.target": "ACE-2 (Homo sapiens)", "pKi": "> 7.30"}
{"molecule": "C=CCOc1ccc(C[C@H](N[C@@H](CC(C)C)C(=O)O)C(=O)O)cc1", "assayed.target": "ACE-2 (Homo sapiens)", "pKi": "7.00 to 7.30"}
{"molecule": "CC(C)C[C@H](N[C@@H](Cc1ccc(OCC2COc3ccc(F)cc32)cc1)C(=O)O)C(=O)O (stereo partly shown)", "assayed.target": "ACE-2 (Homo sapiens)", "pKi": "> 7.30"}
{"molecule": "CC(C)C[C@H](N[C@@H](CC(=O)Nc1nc2ccc(Cl)cc2s1)C(=O)O)C(=O)O", "assayed.target": "ACE-2 (Homo sapiens)", "pKi": "> 7.30"}
{"molecule": "CC(C)C[C@H](N[C@@H](Cc1csc(-c2ccc(Cl)cc2Cl)n1)C(=O)O)C(=O)O", "assayed.target": "ACE-2 (Homo sapiens)", "pKi": "7.00 to 7.30"}
{"molecule": "CC(C)C[C@H](N[C@@H](Cc1ccc(-c2ccc(C(F)(F)F)cc2)cc1)C(=O)O)C(=O)O", "assayed.target": "ACE-2 (Homo sapiens)", "pKi": "7.00 to 7.30"}
{"molecule": "CC(C)C[C@H](N[C@@H](Cn1ccn(Cc2cc(Cl)cc(Cl)c2)c1=O)C(=O)O)C(=O)O", "assayed.target": "ACE-2 (Homo sapiens)", "pKi": "7.00 to 7.30"}
{"molecule": "Cc1ccc2nc(NC(=O)C[C@H](N[C@@H](CC(C)C)C(=O)O)C(=O)O)sc2c1", "assayed.target": "ACE-2 (Homo sapiens)", "pKi": "> 7.30"}
{"molecule": "CC(C)C[C@H](N[C@@H](Cc1cncn1Cc1cc(Cl)cc(Cl)c1)C(=O)OCc1ccccc1)C(=O)O (single isomer, unassigned)", "assayed.target": "ACE-2 (Homo sapiens)", "pKi": "> 7.30"}
{"molecule": "Cc1ccc(Cn2cncc2C[C@H](NC(CC(C)C)C(=O)O)C(=O)O)cc1 (single isomer, unassigned)", "assayed.target": "ACE-2 (Homo sapiens)", "pKi": "> 7.30"}
{"molecule": "O=C(O)[C@H](CCc1ccccc1)N[C@@H](Cc1cncn1Cc1cc(Cl)cc(Cl)c1)C(=O)O", "assayed.target": "ACE-2 (Homo sapiens)", "pKi": "> 7.30"}
{"molecule": "CC(C)C[C@H](N[C@@H](Cc1cncn1Cc1cc(Cl)cc(Cl)c1)C(=O)O)C(=O)OC(C)(C)C", "assayed.target": "ACE-2 (Homo sapiens)", "pKi": "> 7.30"}
{"molecule": "CC(C)CC(N[C@@H](Cc1cncn1Cc1ccc(C(C)C)cc1)C(=O)O)C(=O)O (single isomer, unassigned)", "assayed.target": "ACE-2 (Homo sapiens)", "pKi": "7.00 to 7.30"}
{"molecule": "CC(C)C[C@H](N[C@@H](Cc1ccc(NC(=O)c2cc(F)cc(F)c2)cc1)C(=O)O)C(=O)O", "assayed.target": "ACE-2 (Homo sapiens)", "pKi": "> 7.30"}

###

assayed.target: ACE (Sigma, A2580) (Sus scrofa)
Construct: ACE from porcine kidney; purchased Sigma A2580; host or cells: porcine kidney
Sequence (F1RRW5 34-1309): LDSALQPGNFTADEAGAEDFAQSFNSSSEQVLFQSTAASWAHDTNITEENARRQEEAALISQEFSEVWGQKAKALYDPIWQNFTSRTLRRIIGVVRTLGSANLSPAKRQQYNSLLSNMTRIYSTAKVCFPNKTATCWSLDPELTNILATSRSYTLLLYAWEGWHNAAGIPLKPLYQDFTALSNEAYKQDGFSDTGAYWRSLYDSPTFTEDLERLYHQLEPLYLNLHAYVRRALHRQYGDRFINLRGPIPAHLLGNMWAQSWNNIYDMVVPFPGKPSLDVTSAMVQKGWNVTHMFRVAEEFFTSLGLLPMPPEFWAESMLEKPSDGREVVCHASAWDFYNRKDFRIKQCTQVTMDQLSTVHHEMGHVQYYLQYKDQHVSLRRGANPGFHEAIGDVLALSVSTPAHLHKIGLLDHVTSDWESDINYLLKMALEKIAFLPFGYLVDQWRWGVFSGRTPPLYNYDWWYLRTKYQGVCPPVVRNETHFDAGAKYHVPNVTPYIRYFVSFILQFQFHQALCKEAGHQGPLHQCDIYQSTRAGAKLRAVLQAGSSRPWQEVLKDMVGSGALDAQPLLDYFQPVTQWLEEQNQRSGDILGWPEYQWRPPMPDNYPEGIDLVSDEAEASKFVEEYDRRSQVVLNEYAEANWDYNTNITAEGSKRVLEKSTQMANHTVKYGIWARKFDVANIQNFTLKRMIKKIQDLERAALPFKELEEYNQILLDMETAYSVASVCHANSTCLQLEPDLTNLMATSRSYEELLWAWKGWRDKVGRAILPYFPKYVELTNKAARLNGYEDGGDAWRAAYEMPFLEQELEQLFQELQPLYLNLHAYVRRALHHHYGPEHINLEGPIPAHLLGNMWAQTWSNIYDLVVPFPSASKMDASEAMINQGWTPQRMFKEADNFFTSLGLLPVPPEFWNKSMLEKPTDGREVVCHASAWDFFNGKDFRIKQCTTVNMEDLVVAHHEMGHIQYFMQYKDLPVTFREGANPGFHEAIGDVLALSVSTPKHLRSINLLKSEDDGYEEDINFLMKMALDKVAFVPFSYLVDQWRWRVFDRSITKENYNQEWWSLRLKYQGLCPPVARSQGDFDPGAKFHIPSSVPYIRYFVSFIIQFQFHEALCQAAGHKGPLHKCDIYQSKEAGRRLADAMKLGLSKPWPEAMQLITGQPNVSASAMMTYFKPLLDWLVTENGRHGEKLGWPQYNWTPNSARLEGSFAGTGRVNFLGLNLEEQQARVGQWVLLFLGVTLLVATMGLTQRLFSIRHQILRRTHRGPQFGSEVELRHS
measurement.description: ACE enzymatic activity assay
Assay type: biochemical, porcine
applied.conditions: Ki class; compounds tested in 5% DMSO, 12 concentrations
pKi: −log10 of the molar value.
metric: pKi

{"compound": "CC(C)CC(N[C@@H](Cc1c[nH]cn1)C(=O)O)C(=O)O (stereo in doubt) [AE]", "metric": "pKi", "reported.measurement": "< 4.30"}
{"compound": "O=C(O)C(CCc1ccccc1)N1CCC[C@H]1C(=O)O (stereo in doubt)", "metric": "pKi", "reported.measurement": "< 4.30"}
{"compound": "O=C(O)C(CCc1ccccc1)N[C@@H](Cc1c[nH]cn1)C(=O)O (stereo partly drawn) [DP]", "metric": "pKi", "reported.measurement": "4.30 to 5.00"}
{"compound": "CC(C)CC(N[C@H](CO)Cc1c[nH]cn1)C(=O)O (single isomer, unassigned) [FO]", "metric": "pKi", "reported.measurement": "< 4.30"}
{"compound": "CC(C)CC(N[C@@H](Cc1cn(Cc2ccccc2)cn1)C(=O)O)C(=O)O (single isomer, unassigned) [DL]", "metric": "pKi", "reported.measurement": "< 4.30"}
{"compound": "CC(C)CC(NCCc1c[nH]cn1)C(=O)O (stereo not drawn)", "metric": "pKi", "reported.measurement": "< 4.30"}
{"compound": "O=C(O)C(CCc1ccccc1)N[C@@H](Cc1ccccc1)C(=O)O (stereo partly drawn)", "metric": "pKi", "reported.measurement": "< 4.30"}
{"compound": "CC(N[C@H](Cc1c[nH]cn1)C(=O)O)C(=O)O (stereo partly drawn)", "metric": "pKi", "reported.measurement": "< 4.30"}
{"compound": "CC(C)CC(N[C@@H](Cc1cncn1Cc1ccccc1)C(=O)O)C(=O)O (single isomer, unassigned) [FA]", "metric": "pKi", "reported.measurement": "< 4.30"}

###

Recorded pKi for the following compounds
assayed.target: UniProtKB P00730
measurement.description: Carboxypeptidase A activity assay
Assay type: biochemical
applied.conditions: Ki class; compounds tested in 5% DMSO, 12 concentrations
Description: Carboxypeptidase A activity was measured using a literature assay (Holmquist and Riordan, “Carboxypeptidase A,” Methods of Enzymatic Analysis (1984) p. 44–60). The assay was adapted to a 96 well format by adjusting to a 300 μL assay volume and using ultra-thin bottom plates (Costar/Corning) read at 328 nm. The assay was stopped using EDTA. The activity of the test compounds was investigated using the procedure outlined above. […] Enzyme activity was measured at 12 compound concentrations. […]
pKi: −log10 of the molar value.
metric: pKi

{"compound": "CC(C)CC(N[C@H](CN(C)Cc1ccccc1)C(=O)O)C(=O)O (stereo in doubt)", "metric": "pKi", "reported.measurement": "< 4.30"}
{"compound": "CCCCC(N[C@@H](Cc1cncn1Cc1ccccc1)C(=O)O)C(=O)O (single isomer, unassigned) [FY]", "metric": "pKi", "reported.measurement": "< 4.30"}
{"compound": "O=C(O)C(Cc1ccccc1)NC(Cc1cncn1Cc1ccccc1)C(=O)O (stereo not shown)", "metric": "pKi", "reported.measurement": "< 4.30"}
{"compound": "O=C(O)C(CCc1ccccc1)N1CCC[C@H]1C(=O)O (stereo in doubt)", "metric": "pKi", "reported.measurement": "< 4.30"}
{"compound": "CCCC(N[C@@H](Cc1c[nH]cn1)C(=O)O)C(=O)O (single isomer, unassigned) [DK]", "metric": "pKi", "reported.measurement": "< 4.30"}
{"compound": "CCCCCCC(N[C@H](CCc1ccccc1)C(=O)O)C(=O)O (stereo partly shown)", "metric": "pKi", "reported.measurement": "< 4.30"}
{"compound": "CCC(NC(Cc1cccs1)C(=O)O)C(=O)O (stereo not shown)", "metric": "pKi", "reported.measurement": "< 4.30"}
{"compound": "CC(C)CC(N[C@@H](Cc1cn(Cc2ccc(Cl)cc2)cn1)C(=O)O)C(=O)O (stereo partly shown) [EC]", "metric": "pKi", "reported.measurement": "> 5.00"}
{"compound": "CC(C)C[C@H](NC(CN(C)c1ccccc1)C(=O)O)C(=O)O (stereo partly shown)", "metric": "pKi", "reported.measurement": "4.30 to 5.00"}
{"compound": "CCCCC(N[C@@H](Cc1c[nH]cn1)C(=O)O)C(=O)O (single isomer, unassigned) [ED]", "metric": "pKi", "reported.measurement": "< 4.30"}
{"compound": "CC(C)CCN[C@@H](Cc1c[nH]cn1)C(=O)O", "metric": "pKi", "reported.measurement": "< 4.30"}
{"compound": "CC(C)CC(N[C@H](CC(=O)O)Cc1ccco1)C(=O)O (stereo partly shown)", "metric": "pKi", "reported.measurement": "< 4.30"}
{"compound": "CCCC(N[C@H](Cc1c[nH]cn1)C(=O)O)C(=O)O (stereo partly shown)", "metric": "pKi", "reported.measurement": "< 4.30"}
{"compound": "CC(C)C[C@H](N[C@H](Cc1ccccc1)C(=O)O)C(=O)O", "metric": "pKi", "reported.measurement": "4.30 to 5.00"}
{"compound": "CC(C)(C)C[C@H](N[C@H](CCc1ccccc1)C(=O)O)C(=O)O", "metric": "pKi", "reported.measurement": "< 4.30"}
{"compound": "COc1ccc(CCNC(=O)[C@H](Cc2cnc[nH]2)NC(CC(C)C)C(=O)O)cc1 (single isomer, unassigned) [FL]", "metric": "pKi", "reported.measurement": "< 4.30"}
{"compound": "CC(C)CC(N[C@@H](Cc1cncn1COCc1ccccc1)C(=O)O)C(=O)O (single isomer, unassigned) [FG]", "metric": "pKi", "reported.measurement": "< 4.30"}
{"compound": "CC(C)CC(N[C@@H](Cc1cncn1COCc1ccccc1)C(=O)O)C(=O)O (stereo partly shown) [DX]", "metric": "pKi", "reported.measurement": "< 4.30"}
{"compound": "CC(C)CC(N[C@H](CC(=O)O)Cc1cccs1)C(=O)O (stereo partly shown)", "metric": "pKi", "reported.measurement": "< 4.30"}
